Where these numbers come from: ChEMBL document CHEMBL1157775

For each entry below, report its pIC50 value.
// scale note: pIC50 = -log10(conc_M); give the bare number

Entry Cc1cccc(C)c1C(=O)N1C[C@H]2CN(CC[C@H](NC(=O)C3CCCCC3)c3ccccc3)C[C@H]2C1 , system C-C chemokine receptor type 5 (Homo sapiens): what pIC50 was measured?
8.52

Entry Cc1cc[n+]([O-])c(C)c1C(=O)N1C[C@H]2CN(CC[C@H](NC(=O)C3CCCC3)c3ccccc3)C[C@H]2C1 , system C-C chemokine receptor type 5 (Homo sapiens): what pIC50 was measured?
7.36

Entry Cc1ncnc(C)c1C(=O)N1C[C@H]2CN(CC[C@H](NC(=O)CC3CC(F)(F)C3)c3ccccc3)C[C@H]2C1 , system C-C chemokine receptor type 5 (Homo sapiens): what pIC50 was measured?
7.70

Entry Cc1cccc(Cl)c1C(=O)N1C[C@H]2CN(CC[C@H](NC(=O)C3CCCC3)c3ccccc3)C[C@H]2C1 , system C-C chemokine receptor type 5 (Homo sapiens): what pIC50 was measured?
8.05

Entry Cc1cccc(C)c1C(=O)N1C[C@H]2CN(CC[C@H](NC(=O)C3CCC3)c3ccccc3)C[C@H]2C1 , system C-C chemokine receptor type 5 (Homo sapiens): what pIC50 was measured?
8.15

Entry Cc1noc(C)c1C(=O)N1C[C@H]2CN(CC[C@H](NC(=O)C3CCCC3)c3ccccc3)C[C@H]2C1 , system C-C chemokine receptor type 5 (Homo sapiens): what pIC50 was measured?
7.72

Entry Cc1ncnc(C)c1C(=O)N1C[C@H]2CN(CC[C@H](NC(=O)CC3CC(F)(F)C3)c3cc(F)cc(F)c3)C[C@H]2C1 , system C-C chemokine receptor type 5 (Homo sapiens): what pIC50 was measured?
7.52

----------
molecular target: C-C chemokine receptor type 5 (Homo sapiens, UniProt P51681)
Sequence (P51681 whole entry): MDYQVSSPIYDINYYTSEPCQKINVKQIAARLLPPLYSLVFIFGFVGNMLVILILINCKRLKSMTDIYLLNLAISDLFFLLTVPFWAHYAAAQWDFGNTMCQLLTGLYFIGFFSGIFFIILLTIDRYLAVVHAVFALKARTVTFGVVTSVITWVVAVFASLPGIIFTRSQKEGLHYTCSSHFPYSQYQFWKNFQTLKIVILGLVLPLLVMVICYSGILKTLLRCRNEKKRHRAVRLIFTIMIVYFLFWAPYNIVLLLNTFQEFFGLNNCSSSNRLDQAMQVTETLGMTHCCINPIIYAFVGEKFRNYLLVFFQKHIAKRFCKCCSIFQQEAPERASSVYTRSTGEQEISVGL
Threshold 10 nM. IC50 below it: True. IC50 at it or above: False.

Criterion: IC50 strictly below 10 nM. Is it met by CCO/N=C(\c1ccc(Br)cc1)C1CCN(C2(C)CCN(C(=O)c3c(C)cccc3C)CC2)CC1 ?
True

Criterion: IC50 strictly below 10 nM. Is it met by Cc1ncnc(C)c1C(=O)N1C[C@H]2CN(CC[C@H](NC(=O)CC3CCC(F)(F)CC3)c3ccccc3)C[C@H]2C1 ?
False

Criterion: IC50 strictly below 10 nM. Is it met by Cc1ncnc(C)c1C(=O)N1C[C@H]2CN(CC[C@H](NC(=O)CC3CC(F)(F)C3)c3cccc(C#N)c3)C[C@H]2C1 ?
False

Criterion: IC50 strictly below 10 nM. Is it met by Cc1ccnc(C)c1C(=O)N1C[C@H]2CN(CC[C@H](NC(=O)C3CCCC3)c3ccccc3)C[C@H]2C1 ?
True

Criterion: IC50 strictly below 10 nM. Is it met by Cc1cccc(C)c1C(=O)N1C[C@H]2CN(CC[C@H](NC(=O)c3ccoc3)c3ccccc3)C[C@H]2C1 ?
False

Criterion: IC50 strictly below 10 nM. Is it met by Cc1cc(C#N)nc(C)c1C(=O)N1C[C@H]2CN(CC[C@H](NC(=O)C3CCCC3)c3ccccc3)C[C@H]2C1 ?
False

----------
test: Intrinsic clearance in human liver microsomes assessed per mg of protein; type: ADME, Microsome
For each entry below, report its microsomal CLint value.
API: value field is a number in µL/min/mg; no unit string.

Please look up its microsomal CLint: Cc1ncnc(C)c1C(=O)N1C[C@H]2CN(CC[C@H](NC(=O)C3CCCC3)c3ccccc3)C[C@H]2C1
35

Please look up its microsomal CLint: Cc1cc(=O)[nH]c(C)c1C(=O)N1C[C@H]2CN(CC[C@H](NC(=O)C3CCCC3)c3ccccc3)C[C@H]2C1
25

Please look up its microsomal CLint: Cc1ncnc(C)c1C(=O)N1C[C@H]2CN(CC[C@H](NC(=O)CC3CC(F)(F)C3)c3cc(F)cc(F)c3)C[C@H]2C1
45

Please look up its microsomal CLint: Cc1ncnc(C)c1C(=O)N1C[C@H]2CN(CC[C@H](NC(=O)CC3CC(F)(F)C3)c3ccccc3)C[C@H]2C1
60

Please look up its microsomal CLint: O=C(N[C@@H](CCN1C[C@@H]2CN(C(=O)c3c(Cl)cccc3Cl)C[C@@H]2C1)c1ccccc1)C1CCCC1
389

Please look up its microsomal CLint: Cc1cc[n+]([O-])c(C)c1C(=O)N1C[C@H]2CN(CC[C@H](NC(=O)C3CCCC3)c3ccccc3)C[C@H]2C1
6

Please look up its microsomal CLint: Cc1ccnc(C)c1C(=O)N1C[C@H]2CN(CC[C@H](NC(=O)C3CCCC3)c3ccccc3)C[C@H]2C1
67

Please look up its microsomal CLint: Cc1cc(C#N)nc(C)c1C(=O)N1C[C@H]2CN(CC[C@H](NC(=O)C3CCCC3)c3ccccc3)C[C@H]2C1
227

Please look up its microsomal CLint: Cc1ncnc(C)c1C(=O)N1C[C@H]2CN(CC[C@H](NC(=O)CC3CC(F)(F)C3)c3cccc(C#N)c3)C[C@H]2C1
30

Please look up its microsomal CLint: Cc1cc(F)cc(C)c1C(=O)N1C[C@H]2CN(CC[C@H](NC(=O)C3CCCC3)c3ccccc3)C[C@H]2C1
236

Please look up its microsomal CLint: Cc1ncnc(C)c1C(=O)N1C[C@H]2CN(CC[C@H](NC(=O)CC3CCC(F)(F)CC3)c3ccccc3)C[C@H]2C1
83

Please look up its microsomal CLint: Cc1ncnc(C)c1C(=O)N1C[C@H]2CN(CC[C@H](NC(=O)CC3CCC(F)(F)CC3)c3cccc(F)c3)C[C@H]2C1
113

Please look up its microsomal CLint: COc1cc(C)c(C(=O)N2C[C@H]3CN(CC[C@H](NC(=O)C4CCCC4)c4ccccc4)C[C@H]3C2)c(C)c1
241

Please look up its microsomal CLint: Cc1cccc(C)c1C(=O)N1C[C@H]2CN(CC[C@H](NC(=O)C3CCCC3)c3ccccc3)C[C@H]2C1
256

Please look up its microsomal CLint: Cc1cccc(Cl)c1C(=O)N1C[C@H]2CN(CC[C@H](NC(=O)C3CCCC3)c3ccccc3)C[C@H]2C1
264
